# Tested on: 242566-281-R-J2-PDC complex spheroid viability
# protocol: Anticancer human tumor 242566-281-R-J2-PDC patient-derived pancreatic carcinoma cell line growth inhibition [CLK]; active = viability on the fitted dose curve at most 10% of control; inactive = the rest
# conditionContext: second compound 0.316 µM; first compound 0.3 µM
Outcome codes: yes (1) (active), no (0) (inactive)

compound	className
CC(C)CC(NC(=O)C(Cc1ccccc1)NC(=O)c1cnccn1)B(O)O (stereo unspecified) + CNC(=O)c1ccc(Nc2nc(OC3CCCC3)c3c(-c4ccc5nc(C)oc5c4)c[nH]c3n2)c(OC)c1	yes (1)
C=CC(=O)Nc1cc(Nc2nccc(-c3cn(C)c4ccccc34)n2)c(OC)cc1N(C)CCN(C)C + CNC(=O)c1ccc(Nc2nc(OC3CCCC3)c3c(-c4ccc5nc(C)oc5c4)c[nH]c3n2)c(OC)c1	no (0)
NC(=O)C(=Cn1cnc(-c2cc(C(F)(F)F)cc(C(F)(F)F)c2)n1)c1cncnc1 + CNC(=O)c1ccc(Nc2nc(OC3CCCC3)c3c(-c4ccc5nc(C)oc5c4)c[nH]c3n2)c(OC)c1	no (0)
NC(=O)C(=Cn1cnc(-c2cc(C(F)(F)F)cc(C(F)(F)F)c2)n1)c1cncnc1 + CN1CCN(c2cc(C(=O)Nc3cc4cc(-c5cnn(C)c5)ccc4cn3)ccn2)CC1	yes (1)
C=CC(=O)Nc1cc(Nc2nccc(-c3cn(C)c4ccccc34)n2)c(OC)cc1N(C)CCN(C)C + CN1CCN(c2cc(C(=O)Nc3cc4cc(-c5cnn(C)c5)ccc4cn3)ccn2)CC1	no (0)
CC(C)CC(NC(=O)C(Cc1ccccc1)NC(=O)c1cnccn1)B(O)O (stereo unspecified) + CN1CCN(c2cc(C(=O)Nc3cc4cc(-c5cnn(C)c5)ccc4cn3)ccn2)CC1	yes (1)

* * *

# System: 242566-281-R-J2-PDC complex spheroid viability
# protocol: Anticancer human tumor 242566-281-R-J2-PDC cell line growth inhibition [CLK]; active = viability on the fitted dose curve at most 10% of control; inactive = the rest;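 also: spheroids exposed to compounds for 7 days before readout; 100% = DMSO vehicle control wells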
# conditionContext: second compound 10 µM; first compound 0.00316 µM
# Excerpt: A high-throughput screen of multi-cell type tumor spheroids was designed to identify active combinations of […] and targeted small molecules. Complex spheroids include a stromal component modeled by human endothelial cells (HUVEC) and fibroblasts modeled by human mesenchymal stem cells (MSCs). […] Compounds. […] If the clinical Cmax for an agent had not been determined, the highest concentration tested was 10 microM. […]
Outcomes: yes for active, no for inactive

molecule	testedSystem	className
CCc1c2c(nc3ccc(O)cc13)-c1cc3c(c(=O)n1C2)COC(=O)[C@]3(O)CC + CNC(=O)c1ccc(Nc2nc(OC3CCCC3)c3c(-c4ccc5nc(C)oc5c4)c[nH]c3n2)c(OC)c1	242566-281-R-J2-PDC complex spheroid viability	no
CCc1c2c(nc3ccc(O)cc13)-c1cc3c(c(=O)n1C2)COC(=O)[C@]3(O)CC + CN1CCN(c2cc(C(=O)Nc3cc4cc(-c5cnn(C)c5)ccc4cn3)ccn2)CC1	242566-281-R-J2-PDC complex spheroid viability	yes
CCN1CCN(Cc2ccc(Nc3ncc(F)c(-c4cc(F)c5nc(C)n(C(C)C)c5c4)n3)nc2)CC1 + CN1CCN(c2cc(C(=O)Nc3cc4cc(-c5cnn(C)c5)ccc4cn3)ccn2)CC1	242566-281-R-J2-PDC complex spheroid viability	yes
CCN1CCN(Cc2ccc(Nc3ncc(F)c(-c4cc(F)c5nc(C)n(C(C)C)c5c4)n3)nc2)CC1 + CNC(=O)c1ccc(Nc2nc(OC3CCCC3)c3c(-c4ccc5nc(C)oc5c4)c[nH]c3n2)c(OC)c1	242566-281-R-J2-PDC complex spheroid viability	no
Cn1ncnc1[C@H]1c2n[nH]c(=O)c3cc(F)cc(c23)N[C@@H]1c1ccc(F)cc1 + CN1CCN(c2cc(C(=O)Nc3cc4cc(-c5cnn(C)c5)ccc4cn3)ccn2)CC1	242566-281-R-J2-PDC complex spheroid viability	yes
COc1c(OCCCN2CCOCC2)ccc2c3n(c(=NC(=O)c4cnc(N)nc4)nc12)CCN3 + CN1CCN(c2cc(C(=O)Nc3cc4cc(-c5cnn(C)c5)ccc4cn3)ccn2)CC1	242566-281-R-J2-PDC complex spheroid viability	yes
COc1c(OCCCN2CCOCC2)ccc2c3n(c(=NC(=O)c4cnc(N)nc4)nc12)CCN3 + CNC(=O)c1ccc(Nc2nc(OC3CCCC3)c3c(-c4ccc5nc(C)oc5c4)c[nH]c3n2)c(OC)c1	242566-281-R-J2-PDC complex spheroid viability	no
Cn1ncnc1[C@H]1c2n[nH]c(=O)c3cc(F)cc(c23)N[C@@H]1c1ccc(F)cc1 + CNC(=O)c1ccc(Nc2nc(OC3CCCC3)c3c(-c4ccc5nc(C)oc5c4)c[nH]c3n2)c(OC)c1	242566-281-R-J2-PDC complex spheroid viability	no

* * *

# System: 242566-281-R-J2-PDC complex spheroid viability
# protocol: Anticancer human tumor 242566-281-R-J2-PDC cell line growth inhibition [CLK];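 also: spheroids exposed to compounds for 7 days before readout; 100% = DMSO vehicle control wells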
# conditionContext: second compound 1 µM; first compound 1 µM; active compounds read low

compound	viability, T/C, %
CC1(C)CCC(CN2CCN(c3ccc(C(=O)NS(=O)(=O)c4ccc(NCC5CCOCC5)c([N+](=O)[O-])c4)c(Oc4cnc5[nH]ccc5c4)c3)CC2)=C(c2ccc(Cl)cc2)C1 + CNC(=O)c1ccc(Nc2nc(OC3CCCC3)c3c(-c4ccc5nc(C)oc5c4)c[nH]c3n2)c(OC)c1	73
Nc1ccn(C2OC(CO)C(O)C2(F)F)c(=O)n1 (stereo not given) + CN1CCN(c2cc(C(=O)Nc3cc4cc(-c5cnn(C)c5)ccc4cn3)ccn2)CC1	4.09
CC(=O)O[C@H]1C(=O)[C@@]2(C)[C@H]([C@H](OC(=O)c3ccccc3)[C@]3(O)C[C@H](OC(=O)[C@H](O)[C@@H](NC(=O)c4ccccc4)c4ccccc4)C(C)=C1C3(C)C)[C@]1(OC(C)=O)CO[C@@H]1C[C@@H]2O + CN1CCN(c2cc(C(=O)Nc3cc4cc(-c5cnn(C)c5)ccc4cn3)ccn2)CC1	4.32
O=C(c1cc(Cc2n[nH]c(=O)c3ccccc23)ccc1F)N1CCN(C(=O)C2CC2)CC1 + CN1CCN(c2cc(C(=O)Nc3cc4cc(-c5cnn(C)c5)ccc4cn3)ccn2)CC1	4.43
COc1cccc2c1C(=O)c1c(O)c3c(c(O)c1C2=O)CC(O)(C(=O)CO)CC3OC1CC(N)C(O)C(C)O1 (stereo not given) + CN1CCN(c2cc(C(=O)Nc3cc4cc(-c5cnn(C)c5)ccc4cn3)ccn2)CC1	3.28
CCN1CCN(Cc2ccc(Nc3ncc(F)c(-c4cc(F)c5nc(C)n(C(C)C)c5c4)n3)nc2)CC1 + CN1CCN(c2cc(C(=O)Nc3cc4cc(-c5cnn(C)c5)ccc4cn3)ccn2)CC1	9.16
CCCS(=O)(=O)Nc1ccc(F)c(C(=O)c2c[nH]c3ncc(-c4ccc(Cl)cc4)cc23)c1F + CNC(=O)c1ccc(Nc2nc(OC3CCCC3)c3c(-c4ccc5nc(C)oc5c4)c[nH]c3n2)c(OC)c1	64.8
CCN1CCN(Cc2ccc(Nc3ncc(F)c(-c4cc(F)c5nc(C)n(C(C)C)c5c4)n3)nc2)CC1 + CNC(=O)c1ccc(Nc2nc(OC3CCCC3)c3c(-c4ccc5nc(C)oc5c4)c[nH]c3n2)c(OC)c1	142
Nc1ccn(C2OC(CO)C(O)C2(F)F)c(=O)n1 (stereo not given) + CNC(=O)c1ccc(Nc2nc(OC3CCCC3)c3c(-c4ccc5nc(C)oc5c4)c[nH]c3n2)c(OC)c1	11.9
Nc1ccccc1NC(=O)c1ccc(CNC(=O)OCc2cccnc2)cc1 + CN1CCN(c2cc(C(=O)Nc3cc4cc(-c5cnn(C)c5)ccc4cn3)ccn2)CC1	3.08

* * *

# Test system: 242566-281-R-J2-PDC complex spheroid viability
# protocol: Anticancer human tumor 242566-281-R-J2-PDC cell line growth inhibition [CLK];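 also: spheroids exposed to compounds for 7 days before readout; 100% = DMSO vehicle control wells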
# conditionContext: second compound 0.1 µM; first compound 3.16 µM; active compounds read low

compound	viability, T/C [%]
Nc1ccccc1NC(=O)c1ccc(CNC(=O)OCc2cccnc2)cc1 + CNC(=O)c1ccc(Nc2nc(OC3CCCC3)c3c(-c4ccc5nc(C)oc5c4)c[nH]c3n2)c(OC)c1	109
O=c1[nH]cc(F)c(=O)[nH]1 + CN1CCN(c2cc(C(=O)Nc3cc4cc(-c5cnn(C)c5)ccc4cn3)ccn2)CC1	54.8
C=CC(=O)N1CCN(c2nc(=O)n(-c3c(C)ccnc3C(C)C)c3nc(-c4c(O)cccc4F)c(F)cc23)C(C)C1 (stereo not given) + CNC(=O)c1ccc(Nc2nc(OC3CCCC3)c3c(-c4ccc5nc(C)oc5c4)c[nH]c3n2)c(OC)c1	88.1
COC1C=CCC(C)C(C)S(=O)(=O)NC(=O)c2ccc3c(c2)N(CC2CCC21)CC1(CCCc2cc(Cl)ccc21)CO3 (stereo not given) + CN1CCN(c2cc(C(=O)Nc3cc4cc(-c5cnn(C)c5)ccc4cn3)ccn2)CC1	56.6
CC1(C)CCC(CN2CCN(c3ccc(C(=O)NS(=O)(=O)c4ccc(NCC5CCOCC5)c([N+](=O)[O-])c4)c(Oc4cnc5[nH]ccc5c4)c3)CC2)=C(c2ccc(Cl)cc2)C1 + CNC(=O)c1ccc(Nc2nc(OC3CCCC3)c3c(-c4ccc5nc(C)oc5c4)c[nH]c3n2)c(OC)c1	105
CC(Nc1ccc2c(c1)OCCn1cc(N3C(=O)OCC3C(F)F)nc1-2)C(N)=O (stereo not given) + CNC(=O)c1ccc(Nc2nc(OC3CCCC3)c3c(-c4ccc5nc(C)oc5c4)c[nH]c3n2)c(OC)c1	40.3
Nc1ccn(C2OC(CO)C(O)C2(F)F)c(=O)n1 (stereo not given) + CNC(=O)c1ccc(Nc2nc(OC3CCCC3)c3c(-c4ccc5nc(C)oc5c4)c[nH]c3n2)c(OC)c1	12.8
COc1ccc([C@@H](O)c2cc(-c3ncnc4cc(N5CCOCC5)ccc34)c(F)cc2Cl)nn1 + CNC(=O)c1ccc(Nc2nc(OC3CCCC3)c3c(-c4ccc5nc(C)oc5c4)c[nH]c3n2)c(OC)c1	89.2
CC(Nc1ccc2c(c1)OCCn1cc(N3C(=O)OCC3C(F)F)nc1-2)C(N)=O (stereo not given) + CN1CCN(c2cc(C(=O)Nc3cc4cc(-c5cnn(C)c5)ccc4cn3)ccn2)CC1	27.5
O=C(c1cc(Cc2n[nH]c(=O)c3ccccc23)ccc1F)N1CCN(C(=O)C2CC2)CC1 + CNC(=O)c1ccc(Nc2nc(OC3CCCC3)c3c(-c4ccc5nc(C)oc5c4)c[nH]c3n2)c(OC)c1	88.4
